Sourced from paper PMC12146557

Target system: PfUbc13 (Plasmodium falciparum ubiquitin-conjugating enzyme 13) (Plasmodium falciparum, UniProt Q8I3J4)
Sequence (Q8I3J4 1-152): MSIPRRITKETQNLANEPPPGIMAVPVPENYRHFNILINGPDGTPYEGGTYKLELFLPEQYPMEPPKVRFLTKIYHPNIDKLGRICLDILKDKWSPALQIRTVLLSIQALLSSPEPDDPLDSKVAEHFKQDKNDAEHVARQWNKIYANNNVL
Sequence (Q8I5F9 1-1140 partner): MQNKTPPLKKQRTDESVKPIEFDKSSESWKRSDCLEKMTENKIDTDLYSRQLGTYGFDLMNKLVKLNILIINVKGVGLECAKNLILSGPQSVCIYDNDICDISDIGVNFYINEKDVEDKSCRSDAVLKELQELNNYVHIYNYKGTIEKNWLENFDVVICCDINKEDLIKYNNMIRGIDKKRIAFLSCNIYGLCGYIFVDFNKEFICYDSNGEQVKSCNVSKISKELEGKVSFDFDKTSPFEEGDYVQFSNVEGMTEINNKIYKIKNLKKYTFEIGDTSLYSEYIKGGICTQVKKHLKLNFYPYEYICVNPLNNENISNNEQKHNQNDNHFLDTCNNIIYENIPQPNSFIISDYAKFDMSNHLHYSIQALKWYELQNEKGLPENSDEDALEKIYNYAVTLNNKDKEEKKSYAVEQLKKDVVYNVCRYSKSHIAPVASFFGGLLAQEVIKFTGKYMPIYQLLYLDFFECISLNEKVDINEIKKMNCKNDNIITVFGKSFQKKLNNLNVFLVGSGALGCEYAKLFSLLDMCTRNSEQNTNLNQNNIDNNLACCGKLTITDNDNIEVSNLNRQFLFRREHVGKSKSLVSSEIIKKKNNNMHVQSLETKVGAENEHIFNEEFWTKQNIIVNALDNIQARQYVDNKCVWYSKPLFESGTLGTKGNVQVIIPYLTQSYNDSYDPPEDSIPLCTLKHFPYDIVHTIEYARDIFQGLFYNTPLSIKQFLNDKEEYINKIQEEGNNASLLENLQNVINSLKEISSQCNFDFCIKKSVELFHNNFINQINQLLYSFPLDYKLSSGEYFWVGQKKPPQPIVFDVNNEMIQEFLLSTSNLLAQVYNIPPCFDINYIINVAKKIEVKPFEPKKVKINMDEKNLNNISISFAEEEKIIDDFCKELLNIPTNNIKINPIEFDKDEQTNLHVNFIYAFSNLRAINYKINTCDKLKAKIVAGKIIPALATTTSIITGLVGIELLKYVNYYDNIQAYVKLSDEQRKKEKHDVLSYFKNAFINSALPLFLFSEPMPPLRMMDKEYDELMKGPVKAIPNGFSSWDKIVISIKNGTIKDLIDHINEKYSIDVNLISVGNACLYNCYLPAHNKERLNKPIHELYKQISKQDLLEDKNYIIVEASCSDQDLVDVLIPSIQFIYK
Property label: Ki (nM)

- Cc1ccc(S(=O)(=O)c2ccc([N+](=O)[O-])o2)cc1: 360
